Test system: SW-620
procedure.details: NCI tumour cell line growth inhibition, 48 h
Active and inactive are the calls of the source. No stated cut-off is given here; in the data, active = GI50 up to about 1.1 µM and inactive = higher.
endpoint.label: GI50

[[record]]
compound = "NC(=O)c1cc(N(CCO)CCO)c([N+](=O)[O-])cc1[N+](=O)[O-]"
endpoint_label = "GI50"
result = "> 100 µM (inactive)"

[[record]]
compound = "CCOC(=O)COc1ccc(OCC(=O)OCC)c2c1C(=O)CCCC2=O"
endpoint_label = "GI50"
result = "> 100 µM (inactive)"


State recorded GI50 for all listed compounds.
1. CN(Cc1ccccc1)C1(N(C)Cc2ccccc2)CC1
2. O=C(/C=C/c1c(O)ccc2ccccc12)c1cccc(O)c1
3. Cc1cc(-c2ccc(C(=O)C(c3ccccc3)(c3ccccc3)c3ccccc3)[nH]2)on1
4. CCCCCCCC/C=C/CCCCCCCC1CC(O)C(=O)O1 (stereo unspecified)

**A:**
1. > 100 µM (inactive)
2. > 100 µM (inactive)
3. 19.8 µM (inactive)
4. 55.5 µM (inactive)

----------
System: DU-145
procedure.details: NCI tumour cell line growth inhibition, 48 h
Active and inactive are the calls of the source. No stated cut-off is given here; in the data, active = GI50 up to about 1.1 µM and inactive = higher.
Give measured GI50 for each item. Keep answers brief.

In the examples that follow, each entry is paired with its recorded GI50.
[[record]]
molecule = "O=c1[nH]nc(-c2ccccc2)n1-c1cccc([N+](=O)[O-])c1"
endpoint_label = "GI50"
result = "> 100 µM (inactive)"

[[record]]
molecule = "CN(C)c1ccc(/C=N\\NC(=O)Nc2cccc3ccccc23)cc1"
endpoint_label = "GI50"
result = "6.71 µM (inactive)"

[[record]]
molecule = "COc1cc2c(cc1OC)C13CC[N+]4(C)CC5=CCOC6CC(=O)N2C1C6C5CC34[O-] (stereo not drawn)"
endpoint_label = "GI50"
result = "> 100 µM (inactive)"


State recorded GI50 for all listed molecules.
1. C=C1C(=O)OC2(C)CCC1CC1OC1(C)CCC=C(C)CCC2O (stereo not drawn)
2. Cc1cccc(N(C(=O)Nc2ccc(Cl)c(Cl)c2)C2=NCC(C)S2)c1 (stereo not drawn)
3. O=Cc1[nH]c(=O)[nH]c(=O)c1C(=O)O
4. CN(C)CCCNc1ccc2nnn3c4ccc(OC(=O)c5ccccc5)cc4c(=O)c1c23
5. O=c1cc(NNc2cccc3ccccc23)[nH]c(=O)[nH]1
6. CC(CO)(Nc1ccc([N+](=O)[O-])cc1[N+](=O)[O-])C(=O)O (stereo not drawn)
7. CNC1Cc2c[nH]c3cccc(c23)C12C=C(C)C(=O)O2 (stereo not drawn)

**A:**
1. 55 µM (inactive)
2. > 100 µM (inactive)
3. > 100 µM (inactive)
4. 8.26 µM (inactive)
5. 15.3 µM (inactive)
6. 22.8 µM (inactive)
7. > 100 µM (inactive)

----------
Tested on: OVCAR-8
procedure.details: NCI tumour cell line growth inhibition, 48 h
Activity calls are given as the source filed them. Rule as the data show it: active = GI50 up to about 1.1 µM and inactive = higher.
The reply should name one outcome from active, inactive

Examples with answers:
[[record]]
molecule = "Cc1cc(C(F)(F)F)cc(-n2nc(NS(=O)(=O)c3cc(C)c(Cl)cc3S)nc2N)n1"
subject_of_test = "OVCAR-8"
class_name = "inactive"

[[record]]
molecule = "CC1=NC(=Cc2ccc([N+](=O)[O-])cc2)C(=O)N1n1c(-c2ccccc2)nc2ccccc2c1=O"
subject_of_test = "OVCAR-8"
class_name = "inactive"

[[record]]
molecule = "Cc1ccc2c(c1)C(=O)/C(=N/Nc1ccc(Cl)cc1)CCO2"
subject_of_test = "OVCAR-8"
class_name = "inactive"


**Q:** Hello, I am checking results. What call was entered for "S=C(N/N=C(/c1ccccc1)c1ccccn1)N1CCCCC1" ?
**A:** active

**Q:** Hello, I am checking results. What call was entered for COc1cc2c(cc1OC)C(Cl)C(c1ccc(F)cc1)=C2Cl (stereo not drawn) ?
**A:** inactive

**Q:** Hello, I am checking results. What call was entered for COC(=O)C(Br)C1CCc2ccccc21 (stereo not drawn) ?
**A:** inactive

----------
System: OVCAR-5
procedure.details: NCI tumour cell line growth inhibition, 48 h
The source made the active and inactive calls. Rule as the data show it: active = GI50 up to about 1.1 µM and inactive = higher.
endpoint.label: GI50

In the examples that follow, each entry is paired with its recorded GI50.
[[record]]
compound = "C=C1C(=O)OC2(C)CCC1CC1OC1(C)CCC=C(C)CCC2O (stereo unspecified)"
subject_of_test = "OVCAR-5"
endpoint_label = "GI50"
result = "> 100 µM (inactive)"

[[record]]
compound = "N#CCCN(c1ccc(/C=N/c2ccc(C(=O)O)cc2)cc1)S(=O)(=O)c1ccccc1"
subject_of_test = "OVCAR-5"
endpoint_label = "GI50"
result = "> 100 µM (inactive)"

[[record]]
compound = "Cc1cc(NCCCCCCCNc2cc(C)nc3cc([N+](=O)[O-])ccc23)c2ccc([N+](=O)[O-])cc2n1"
subject_of_test = "OVCAR-5"
endpoint_label = "GI50"
result = "15.6 µM (inactive)"

[[record]]
compound = "Fc1ccccc1-c1nn2c(C34CC5CC(CC(C5)C3)C4)nnc2s1"
subject_of_test = "OVCAR-5"
endpoint_label = "GI50"
result = "> 100 µM (inactive)"

[[record]]
compound = "CC1CC/C(=C\\c2ccc(Cl)cc2)c2nc(N)c(C#N)c(-c3ccc(Cl)cc3)c21 (stereo unspecified)"
subject_of_test = "OVCAR-5"
endpoint_label = "GI50"
result = "> 100 µM (inactive)"

[[record]]
compound = "Cc1cccc2c1CC(C1OC(=O)c3ccccc31)C2=O (stereo unspecified)"
subject_of_test = "OVCAR-5"
endpoint_label = "GI50"
result = "> 100 µM (inactive)"


State recorded GI50 for all listed compounds.
1. Nc1nc(Cl)cc(NCC2(CO)CC(Cc3ccccc3)C2)n1 (stereo unspecified)
2. C1CCCCC2(CCCCCCCCC3(CCC1)OCCO3)OCCO2

**A:**
1. > 58.7 µM (inactive)
2. > 100 µM (inactive)

State recorded GI50 for all listed compounds.
1. O=c1[nH]nc(-c2ccccc2)n1Nc1ccccc1
2. CCOC(=O)/N=c1/nc(N(C)C)ss1
3. CCCCCCCCCCCC(=O)OCCOCCOCCOCCOCCOCc1ccccc1

**A:**
1. > 100 µM (inactive)
2. > 100 µM (inactive)
3. > 100 µM (inactive)

----------
Give measured GI50 for each item. Keep answers brief.
Tested on: RXF 393
procedure.details: NCI tumour cell line growth inhibition, 48 h
Activity calls are given as the source filed them. No stated cut-off is given here; in the data, active = GI50 up to about 1.1 µM and inactive = higher.

In the examples that follow, each entry is paired with its recorded GI50.
[[record]]
compound = "Cc1ccc(NC(=O)CC/C(CC(=O)c2ccc(F)cc2)=N\\NC(=O)C(=O)NN)cc1C"
result = "> 100 µM (inactive)"

[[record]]
compound = "O=C1/C(=C/c2cccc(O)c2)COc2ccccc21"
result = "10.1 µM (inactive)"

[[record]]
compound = "Cc1ccc(/C=C2\\CN(C)CC3C(c4ccc(C)cc4)=C(C#N)C(=O)NC23)cc1 (stereo unspecified)"
result = "> 50 µM (inactive)"

[[record]]
compound = "O=C1/C(=C\\c2cccc(Oc3ccccc3)c2)SC(c2ccccc2)N1c1cccc([N+](=O)[O-])c1 (stereo unspecified)"
result = "> 100 µM (inactive)"

[[record]]
compound = "CC(=O)c1nc2ccccc2n1CC(=O)c1ccc([N+](=O)[O-])cc1"
result = "23.8 µM (inactive)"

[[record]]
compound = "Cc1sc2c(c1C)/C(=N\\O)c1cccn1-2"
result = "23.2 µM (inactive)"


State recorded GI50 for all listed compounds.
1. O=C(O)c1nc2ccc(C(F)(F)F)cc2nc1NCc1ccc(F)cc1
2. COC(=O)c1cn(CCCCO)nn1
3. N#CNc1nc(C(=O)Nc2ccc(Cl)cc2)cc(-c2ccccc2)n1

**A:**
1. > 100 µM (inactive)
2. > 100 µM (inactive)
3. > 100 µM (inactive)

State recorded GI50 for all listed compounds.
1. COC(=O)c1cncc2c1CC1C3(C(=O)OC)C=NC(C4C(CO)=CCC43)C21C (stereo unspecified)
2. CC(=O)OCC12CN(C#N)C3C4COC(CC41)C1(C(=O)N(C)c4ccccc41)C32 (stereo unspecified)

**A:**
1. > 100 µM (inactive)
2. 12.1 µM (inactive)

----------
Tested on: KM12
procedure.details: NCI tumour cell line growth inhibition, 48 h
The source made the active and inactive calls. Cut-off read from the data, not from the text of the source: active = GI50 up to about 1.1 µM and inactive = higher.
The reply should name one outcome from active, inactive

Examples with answers:
[[record]]
molecule = "c1ccc2c(c1)[nH]c1nc3cc(-c4ccc5nc6c(nc5c4)[nH]c4ccccc46)ccc3nc12"
class_name = "inactive"

[[record]]
molecule = "O=c1c2c(sc3ccccc13)NCN(CCc1ccccc1)C2"
class_name = "inactive"

[[record]]
molecule = "C=CCN1C(N)=C(C(N)=O)S/C1=C1/SC(=S)N(c2ccc(C)cc2)C1=O"
class_name = "inactive"


**Q:** Hello, I am checking results. What call was entered for "C#C[C@@H](CCCC)OC(=O)N[C@H](C)c1ccccc1" ?
**A:** inactive

**Q:** Hello, I am checking results. What call was entered for "C#C[C@]1(O)[C@@H](CO)O[C@@H](n2ccc(=O)[nH]c2=O)[C@@H]1O" ?
**A:** active

Reference source: ChEMBL document CHEMBL1201862
